# experimentalSystem: T1, human CD40-Fc protein (amino acid residue 21-193 of SEQ ID NO: 67 linked to N-terminus of amino acid residue … (human, biotin-labeled in the capture ELISA and in the benchmark blocking ELISA; unlabeled when coated in the ligand blocking ELISA)
# T1 construct: also called biotin-labeled human CD40-Fc; human CD40-Fc-biotin
# T1 sequence (chain, as listed by the source): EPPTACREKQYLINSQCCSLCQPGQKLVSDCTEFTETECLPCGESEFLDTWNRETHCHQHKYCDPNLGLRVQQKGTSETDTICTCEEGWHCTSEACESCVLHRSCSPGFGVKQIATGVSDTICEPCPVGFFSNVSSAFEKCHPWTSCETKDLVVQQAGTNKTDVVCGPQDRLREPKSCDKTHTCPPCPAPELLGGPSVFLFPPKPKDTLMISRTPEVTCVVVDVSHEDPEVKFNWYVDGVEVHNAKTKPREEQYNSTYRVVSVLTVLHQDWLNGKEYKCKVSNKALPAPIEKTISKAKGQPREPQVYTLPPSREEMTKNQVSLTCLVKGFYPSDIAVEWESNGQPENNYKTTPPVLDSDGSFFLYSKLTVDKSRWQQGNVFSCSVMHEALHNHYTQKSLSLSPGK
# assayProtocol: capture ELISA, biotin human CD40-Fc; mAb at 0 ng/mL (blank)
endpoint: absorbance at 450 nm (OD450)
Numbers only, in OD450.

Guide cases for absorbance at 450 nm, answers given:
[
  {
    "binder": "mouse anti-CD40 monoclonal antibody C1C1 (antibody, V domains shown, those are used here for the chimeric antibody only; also called Mouse C1C1; mouse C1C1) VH: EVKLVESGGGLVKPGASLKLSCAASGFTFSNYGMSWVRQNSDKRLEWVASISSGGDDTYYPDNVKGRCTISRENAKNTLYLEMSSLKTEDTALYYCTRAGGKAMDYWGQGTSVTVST VL: DIVLTQSPATLSVIPGNSVSLSCRASQSIRDNLHWYQQKSHESPRLLINYASQSISGIPSRFSGSGSGTDFTLTINSVETEDFGIYFCQQFNSWPLTFGGGTKLELK",
    "absorbance at 450 nm (OD450)": 0.124
  },
  {
    "binder": "humanized antibody huC1C1-V4 (antibody, human IgG1, kappa, V domains shown, Human IgG1/kappa) VH: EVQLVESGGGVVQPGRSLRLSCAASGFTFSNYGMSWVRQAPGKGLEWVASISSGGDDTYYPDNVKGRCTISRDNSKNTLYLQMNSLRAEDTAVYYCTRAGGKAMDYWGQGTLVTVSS VL: EIVLTQSPATLSLSPGERATLSCRASQSIRDNLHWYQQKPGQSPRLLIYYASQSISGIPARFSGSGSGTDFTLTISSLEPEDFAVYFCQQFNSWPLTFGQGTKVEIKR",
    "absorbance at 450 nm (OD450)": 0.025
  }
]

Please supply absorbance at 450 nm for each of the following items, keeping them in order.
1. humanized antibody huC1C1-V5 (antibody, human IgG1, kappa, V domains shown, Human IgG1/kappa; also called humanized C1C1-V5) VH: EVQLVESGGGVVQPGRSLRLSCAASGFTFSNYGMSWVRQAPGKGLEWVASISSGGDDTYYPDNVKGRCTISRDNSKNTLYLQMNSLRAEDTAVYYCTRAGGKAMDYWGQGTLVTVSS VL: EIVLTQSPATLSLSPGERATLSCRASQSIRDNLHWYQQKPGQSPRLLINYASQSISGIPARFSGSGSGTDFTLTISSLEPEDFAVYYCQQFNSWPLTFGQGTKVEIKR
2. chimeric antibody C1C1 (antibody, human IgG1, kappa, V domains shown, also called chC1C1; chimeric C1C1) VH: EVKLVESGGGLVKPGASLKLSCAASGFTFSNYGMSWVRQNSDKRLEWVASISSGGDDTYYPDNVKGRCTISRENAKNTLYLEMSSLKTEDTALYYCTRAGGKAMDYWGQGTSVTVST VL: DIVLTQSPATLSVIPGNSVSLSCRASQSIRDNLHWYQQKSHESPRLLINYASQSISGIPSRFSGSGSGTDFTLTINSVETEDFGIYFCQQFNSWPLTFGGGTKLELKR

Response:
1. 0.027
2. 0.028
